The reader will find reported pKa values listed item by item below.
protocol_details: pKa was determined
Format: physicochemical
property: pKa

- O=C(C1CCN(c2ccncc2F)CC1)N1CCN(S(=O)(=O)c2ccc(C(F)(F)F)cc2)CC1: 6.7
- O=C(N1CCC(c2ccncc2)CC1)N1CCN(S(=O)(=O)c2ccc(Cl)cc2)CC1: 5.8
- O=C(N1CCN(c2ccncc2Cl)CC1)N1CCN(S(=O)(=O)c2ccc(Cl)cc2)CC1: 5.8
